# System: MOOVA (Monochoria)
# assay-procedure: Preemergence weed control under flooded paddy conditions
# Type: in vivo, Monochoria vaginalis
# test-context: 0.0625 kg/ha, rated 3-4 weeks after treatment
Entries and their measured Herbicidal rating MOOVA follow.
Respond with the number and no other words.

Look over these answered cases.
1) CCOC(=O)CN1C(=O)C(F)SC1=Nc1cc(-n2c(=O)cc(C(F)(F)F)n(C)c2=O)c(F)cc1Cl (stereo not shown)    1.0
2) CCOC(=O)CN1C(=O)C(CC(=O)O)O/C1=N/c1cc(-n2c(=O)cc(C(F)(F)F)n(C)c2=O)c(F)cc1Cl (stereo not shown)    9.0
3) COC(=O)CCN1C(=O)CSC1=Nc1cc(-n2c(=O)cc(C(F)(F)F)n(C)c2=O)c(F)cc1Cl    9.0

// assay MOOVA (Monochoria), entry CCOC(=O)CN1C(=O)C(Cc2ccccc2OC(C)C(=O)OC)SC1=Nc1cc(-n2c(=O)cc(C(F)(F)F)n(C)c2=O)c(F)cc1Cl (stereo not shown) , Herbicidal rating MOOVA value = 0.0

---

Entries and their measured herbicidal rating ECHCG follow.
# Tested on: ECHCG (Barnyardgrass)
# assay-procedure: Postemergence herbicidal evaluation
# Assay type: in vivo, Echinochloa crus-galli
# test-context: postemergence, rate 0.0313 kg/ha
Respond with the number and no other words.

Look over these answered cases.
1. COc1cccc(CN2C(=O)CSC2=Nc2cc(-n3c(=O)cc(C(F)(F)F)n(C)c3=O)c(F)cc2Cl)c1    1.0
2. Cn1c(C(F)(F)F)cc(=O)n(-c2cc(N=C3SCC(=O)N3Cc3ccc(Cl)cc3)c(Cl)cc2F)c1=O    3.0
3. COC(=O)CSCCN1C(=O)CSC1=Nc1cc(-n2c(=O)cc(C(F)(F)F)n(C)c2=O)c(F)cc1Cl    2.0
4. C=CCN1C(=O)C(CC(=O)NO)SC1=Nc1cc(-n2c(=O)cc(C(F)(F)F)n(C)c2=O)c(F)cc1Cl (stereo not shown)    0.0
5. CCOC(=O)CN1C(=O)C(CC(=O)NS(=O)(=O)CC)SC1=Nc1cc(-n2c(=O)cc(C(F)(F)F)n(C)c2=O)c(F)cc1Cl (stereo not shown)    9.0
6. Cn1c(C(F)(F)F)cc(=O)n(-c2cc(N=C3SCC(=O)N3C3CC3)c(Cl)cc2F)c1=O    2.0

Now take the following compound into account.
// assay ECHCG (Barnyardgrass), entry C=CCN1C(=O)C(CC(N)=O)SC1=Nc1cc(-n2c(=O)cc(C(F)(F)F)n(C)c2=O)c(F)cc1Cl (stereo not shown) , herbicidal rating ECHCG value = 4.0

---

Entries and their measured CHEAL herbicidal rating follow.
# System: CHEAL (Lambsquarters, Common)
# assay-procedure: Postemergence herbicidal evaluation
# Assay type: in vivo, Chenopodium album
# test-context: postemergence, rate 0.0313 kg/ha
Respond with the number and no other words.

Look over these answered cases.
1. CC1SC(=Nc2cc(N3C(=O)C4=C(CCCC4)C3=O)c(F)cc2Cl)N(C)C1=O (stereo not drawn)    2.0
2. CCOC(=O)CN1C(=O)C(F)SC1=Nc1cc(-n2c(=O)cc(C(F)(F)F)n(C)c2=O)c(F)cc1Cl (stereo not drawn)    9.0
3. CCC1SC(=Nc2cc(-n3c(=O)cc(C(F)(F)F)n(C)c3=O)c(F)cc2Cl)N(C)C1=O (stereo not drawn)    7.0
4. CC1SC(=Nc2cc(-n3c(=O)cc(C(F)(F)F)n(C)c3=O)c(F)cc2Cl)N(C)C1=O (stereo not drawn)    6.0
5. C=CCN1C(=O)C(CC(=O)NOC)SC1=Nc1cc(-n2c(=O)cc(C(F)(F)F)n(C)c2=O)c(F)cc1Cl (stereo not drawn)    4.0

// recorded CHEAL herbicidal rating for "COC(=O)CN1C(=O)CSC1=Nc1cc(-n2c(=O)cc(C(F)(F)F)n(C)c2=O)c(F)cc1Cl" : 3.0

---

# System: SETVI (Foxtail, Green)
# assay-procedure: Preemergence herbicidal evaluation
# Format: in vivo, Setaria viridis
# test-context: rate 0.2500 kg/ha; rated 4-5 weeks after treatment
Entries and their measured Preemergence herbicidal rating SETVI follow.
Respond with the number and no other words.

1) C=CCN1C(=O)C(CC(=O)OC(C)C)SC1=Nc1cc(-n2c(=O)cc(C(F)(F)F)n(C)c2=O)c(F)cc1Cl (centres unmarked) [Compound 66]    7.5

// recorded Preemergence herbicidal rating SETVI for COCCOC(=O)CN1C(=O)CSC1=Nc1cc(-n2c(=O)cc(C(F)(F)F)n(C)c2=O)c(F)cc1Cl [Compound 107] : 7.0

// recorded Preemergence herbicidal rating SETVI for CCOC(=O)CN1CCSC1=Nc1cc(-n2nc(C)n(C(F)F)c2=O)c(F)cc1Cl [Compound 36] : 9.0

// recorded Preemergence herbicidal rating SETVI for CCOC(=O)CN1C(=O)C(CC(=O)OC(C)C)SC1=Nc1cc(-n2c(=O)cc(C(F)(F)F)n(C)c2=O)c(F)cc1Cl (centres unmarked) [Compound 60] : 4.5

// recorded Preemergence herbicidal rating SETVI for C=CCN1C(=O)C(CC(=O)O)SC1=Nc1cc(-n2c(=O)cc(C(F)(F)F)n(C)c2=O)c(F)cc1Cl (centres unmarked) [Compound 62] : 9.0

// recorded Preemergence herbicidal rating SETVI for CCOC(=O)CN1C(=O)C(CC(=O)NS(=O)(=O)C(C)C)SC1=Nc1cc(-n2c(=O)cc(C(F)(F)F)n(C)c2=O)c(F)cc1Cl (centres unmarked) [Compound 117] : 0.0

// recorded Preemergence herbicidal rating SETVI for CCOC(=O)CN1C(=O)C(CC(=O)O)SC1=Nc1cc(-n2nc(C)n(C(F)F)c2=O)c(F)cc1Cl (centres unmarked) [Compound 112] : 0.0

// recorded Preemergence herbicidal rating SETVI for Cn1c(C(F)(F)F)cc(=O)n(-c2cc(N=C3SCC(=O)N3[C@H](Cc3ccccc3)C(=O)O)c(Cl)cc2F)c1=O [Compound 69] : 7.0

---

# Test system: GLXMAW (Soybean, Williams)
# assay-procedure: Postemergence herbicidal evaluation
# Assay type: in vivo, Glycine max, (L.) Merr. cv Williams
# test-context: postemergence, rate 0.0313 kg/ha
quantity-name: GLXMAW herbicidal rating
Respond with the number and no other words.

Look over these answered cases.
1) COC(=O)CN1C(=O)CSC1=Nc1cc(-n2c(=O)cc(C(F)(F)F)n(C)c2=O)c(F)cc1Cl    5.5
2) CC1SC(=Nc2cc(-n3c(=O)cc(C(F)(F)F)n(C)c3=O)c(F)cc2Cl)N(C)C1=O (stereo not shown)    5.8
3) CCOC(=O)CN1C(=O)C(CC)SC1=Nc1cc(-n2c(=O)cc(C(F)(F)F)n(C)c2=O)c(F)cc1Cl (stereo not shown)    5.5

Now take the following compound into account.
// recorded GLXMAW herbicidal rating for C=CCN1C(=O)C(CC(=O)OC(C)C)SC1=Nc1cc(-n2c(=O)cc(C(F)(F)F)n(C)c2=O)c(F)cc1Cl (stereo not shown) : 8.5

---

Entries and their measured Herbicidal rating SAGPY follow.
# Test system: SAGPY (Arrowhead (Pygmaea))
# assay-procedure: Preemergence weed control under flooded paddy conditions
# Format: in vivo, Sagittaria pygmaea
# test-context: 0.2500 kg/ha, rated 3-4 weeks after treatment
Respond with the number and no other words.

1) CCOC(=O)CCN1C(=O)CSC1=Nc1cc(-n2c(=O)cc(C(F)(F)F)n(C)c2=O)c(Cl)cc1Cl    0.0

// recorded Herbicidal rating SAGPY for CC1SC(=Nc2cc(-n3c(=O)cc(C(F)(F)F)n(C)c3=O)c(F)cc2Cl)N(C)C1=O (stereo not drawn) : 2.0

// recorded Herbicidal rating SAGPY for CCOC(=O)CN1C(=O)C(C)SC1=Nc1cc(-n2c(=O)cc(C(F)(F)F)n(C)c2=O)c(F)cc1Cl (stereo not drawn) : 0.0

---

Entries and their measured Postemergence herbicidal rating AMBEL follow.
# Test system: AMBEL (Ragweed, Common)
# assay-procedure: Postemergence herbicidal evaluation
# Type: in vivo, Ambrosia artemisifolia
# test-context: Rate 0.0315 kg/ha
# Procedure: In the tests, seedling plants are grown in jiffy flats for about two weeks. The test compounds are dispersed in 50/50 acetone/water mixtures containing 0.5% TWEEN®20, a polyoxyethylene sorbitan monolaurate surfactant of Atlas Chemical Industries, in sufficient quantities to provide the equivalent of about 0.0156 kg to 0.500 kg per hectare of active compound when applied to the plants through a spray nozzle operating at 40 psi for a predetermined time. […]
Respond with the number and no other words.

// recorded Postemergence herbicidal rating AMBEL for C=CCN1C(=O)C(CC(=O)O)SC1=Nc1cc(-n2c(=O)cc(C(F)(F)F)n(C)c2=O)c(F)cc1Cl (stereo not shown) : 7.0

// recorded Postemergence herbicidal rating AMBEL for CCOC(=O)CN1C(=O)C(CC(=O)O)O/C1=N/c1cc(-n2c(=O)cc(C(F)(F)F)n(C)c2=O)c(F)cc1Cl (stereo not shown) : 9.0

// recorded Postemergence herbicidal rating AMBEL for "Cn1c(C(F)(F)F)cc(=O)n(-c2cc(N=C3SCC(=O)N3CCC(=O)O)c(Cl)cc2F)c1=O" : 0.0

// recorded Postemergence herbicidal rating AMBEL for CCOC(=O)CN1C(=O)C(CC(=O)OC(C)C)SC1=Nc1cc(-n2c(=O)cc(C(F)(F)F)n(C)c2=O)c(F)cc1Cl (stereo not shown) : 9.0
